species on record: Rattus norvegicus; assay: DrugMatrix - Regimen: Daily Repeat; type: toxicity, organism-based, Sprague-Dawley; set-up: regimen Daily Repeat, gender Male, age 6-8 weeks; details: in vivo, ip, 2 mg/kg, 120 h, tissue Blood, route intraperitoneal, dose level High, time 5 day, vehicle 100 % SALINE
recorded_endpoint: ABSOLUTE LYMPHOCYTE (cells/µL)
Number in cells/µL, nothing else.

Reported ABSOLUTE LYMPHOCYTE, substance CADMIUM DICHLORIDE : ____
6790

----------
Recorded CHOLESTEROL, one value per entry.
organism: Rattus norvegicus; assay: DrugMatrix - Regimen: Daily Repeat; format: toxicity, organism-based, Sprague-Dawley; design: regimen Daily Repeat, gender Male, age 6-8 weeks; settings: in vivo, po, 10 mg/kg, 120 h, tissue Plasma, route oral GAVAGE, dose level Low, time 5 day, […]
Number in mg/dL, nothing else.

Reported CHOLESTEROL, molecule CCOC(=O)C1=C(C)NC(C)=C(C(=O)OC)C1c1cccc([N+](=O)[O-])c1 (centres undefined) : ____
70.67

Next:
Reported CHOLESTEROL, molecule CC(C)CC(N(C)C)C1(c2ccc(Cl)cc2)CCC1 (centres undefined) : ____
72

Reported CHOLESTEROL, molecule COCCOC(=O)C1=C(C)NC(C)=C(C(=O)OC(C)C)C1c1cccc([N+](=O)[O-])c1 (centres undefined) : ____
63

Reported CHOLESTEROL, molecule COc1ccc2cc([C@H](C)C(=O)O)ccc2c1 : ____
40.33

----------
species on record: Rattus norvegicus; test: DrugMatrix - Regimen: Daily Repeat; type: toxicity, organism-based, Sprague-Dawley; set-up: regimen Daily Repeat, gender Male, age 6-8 weeks; settings: in vivo, po, 0 mg/kg, 120 h, tissue Plasma, route oral GAVAGE, dose level Control, time 5 day, vehicle 100 % WATER
Recorded URIC ACID, one value per entry.
Number in mg/dL, nothing else.

Some compounds with known URIC ACID results, for comparison:
Reported URIC ACID, compound C[N+](C)(C)CCO.[Cl-] [CHOLINE CHLORIDE] : ____
2.18

Reported URIC ACID, compound C[C@@H]1C[C@@H]([C@H](O)CC2CC(=O)NC(=O)C2)C(=O)[C@@H](C)C1 [CYCLOHEXIMIDE] : ____
0.97

Reported URIC ACID, compound Nc1ccn([C@@H]2CS[C@H](CO)O2)c(=O)n1 : ____
0.63

Next:
Reported URIC ACID, compound Cc1ncc([N+](=O)[O-])n1CCO : ____
0.93

Reported URIC ACID, compound CC(C)NCC(O)COc1cccc2ccccc12 (stereo not given) : ____
2

Reported URIC ACID, compound CC(C)C[C@H](NC(=O)[C@@H](O)[C@H](N)Cc1ccccc1)C(=O)O : ____
1.83

Reported URIC ACID, compound COc1cc2ncnc(Nc3ccc(F)c(Cl)c3)c2cc1OCCCN1CCOCC1 : ____
0.0833

Reported URIC ACID, compound ClC(Cl)Cl [CHLOROFORM] : ____
0.93

Reported URIC ACID, compound COC(=O)C1=C(C)NC(C)=C(C(=O)OCC(C)C)C1c1ccccc1[N+](=O)[O-] (stereo not given) : ____
0.73

Reported URIC ACID, compound CC(C)(C)c1ccc(C(=O)CCCN2CCC(OC(c3ccccc3)c3ccccc3)CC2)cc1 : ____
1.52

----------
species on record: Rattus norvegicus; experiment: DrugMatrix - Regimen: Daily Repeat; type: toxicity, organism-based, Sprague-Dawley; design: regimen Daily Repeat, gender Male, age 6-8 weeks; details: in vivo, po, 0 mg/kg, 72 h, tissue Blood, route oral GAVAGE, dose level Control, time 3 day, […]
Recorded EOSINOPHIL, one value per entry.
Number in %, nothing else.

Some compounds with known EOSINOPHIL results, for comparison:
Reported EOSINOPHIL, compound CC/C(=C(/CC)c1ccc(O)cc1)c1ccc(O)cc1 [DIETHYLSTILBESTROL] : ____
0.17

Reported EOSINOPHIL, compound CC(C)(Oc1ccc(C2CCCc3ccccc32)cc1)C(=O)O (configuration not stated) [NAFENOPIN] : ____
0.33

Reported EOSINOPHIL, compound CC(=O)Nc1ccc(O)cc1 [ACETAMINOPHEN] : ____
0

Reported EOSINOPHIL, compound COCCOC(=O)C1=C(C)NC(C)=C(C(=O)OC(C)C)C1c1cccc([N+](=O)[O-])c1 (configuration not stated) [NIMODIPINE] : ____
0

Reported EOSINOPHIL, compound C[C@]12CC[C@@H]3c4ccc(O)cc4CC[C@H]3[C@@H]1CC[C@@H]2O [ESTRADIOL] : ____
0.33

Next:
Reported EOSINOPHIL, compound S=C=Nc1cccc2ccccc12 [1-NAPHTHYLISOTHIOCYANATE] : ____
0.5

Reported EOSINOPHIL, compound C[C@H]1O[C@@H](O[C@H]2[C@@H](O)C[C@H](O[C@H]3[C@@H](O)C[C@H](O[C@H]4CC[C@@]5(C)[C@H](CC[C@@H]6[C@@H]5CC[C@]5(C)[C@@H](C7=CC(=O)OC7)CC[C@]65O)C4)O[C@@H]3C)O[C@@H]2C)C[C@H](O)[C@@H]1O [DIGITOXIN] : ____
0.17

----------
organism: Rattus norvegicus; assay: DrugMatrix - Regimen: Daily Repeat; format: toxicity, organism-based, Sprague-Dawley; set-up: regimen Daily Repeat, gender Male, age 6-8 weeks; details: in vivo, po, 900 mg/kg, 120 h, tissue Blood, route oral GAVAGE, dose level High, time 5 day, […]
recorded_endpoint: ABSOLUTE BASOPHIL (cells/µL)
Number in cells/µL, nothing else.

Reported ABSOLUTE BASOPHIL, molecule Clc1ccc(Cl)cc1 [1,4-DICHLOROBENZENE] : ____
30

----------
species on record: Rattus norvegicus; assay: DrugMatrix - Regimen: Daily Repeat; assay type: toxicity, organism-based, Sprague-Dawley; set-up: regimen Daily Repeat, gender Male, age 6-8 weeks; conditions: in vivo, po, 0 mg/kg, 120 h, tissue Plasma, route oral GAVAGE, dose level Control, time 5 day, […]
recorded_endpoint: BLOOD UREA NITROGEN (mg/dL)
Number in mg/dL, nothing else.

Some compounds with known BLOOD UREA NITROGEN results, for comparison:
Reported BLOOD UREA NITROGEN, compound CC(C)(Oc1ccc(C2CCCc3ccccc32)cc1)C(=O)O (centres undefined) [NAFENOPIN] : ____
14.67

Reported BLOOD UREA NITROGEN, compound C[C@]12CC[C@@H]3c4ccc(O)cc4CC[C@H]3[C@@H]1CC[C@@H]2O [ESTRADIOL] : ____
13.67

Reported BLOOD UREA NITROGEN, compound CCOC(=O)C1=C(C)NC(C)=C(C(=O)OC)C1c1cccc([N+](=O)[O-])c1 (centres undefined) [NITRENDIPINE] : ____
14.17

Reported BLOOD UREA NITROGEN, compound Clc1ccc(Cl)cc1 [1,4-DICHLOROBENZENE] : ____
14.67

Reported BLOOD UREA NITROGEN, compound CC(=O)Nc1ccc(O)cc1 [ACETAMINOPHEN] : ____
13.5

Next:
Reported BLOOD UREA NITROGEN, compound CC(=O)Nc1cccc(O)c1 [METACETAMOL] : ____
15.67

Reported BLOOD UREA NITROGEN, compound O=NN(CCCl)C(=O)NCCCl [CARMUSTINE] : ____
13.5

Reported BLOOD UREA NITROGEN, compound CC/C(=C(/CC)c1ccc(O)cc1)c1ccc(O)cc1 [DIETHYLSTILBESTROL] : ____
14.83

Reported BLOOD UREA NITROGEN, compound COc1ccc2[nH]c([S+]([O-])Cc3ncc(C)c(OC)c3C)nc2c1 (centres undefined) [OMEPRAZOLE] : ____
14.67

Reported BLOOD UREA NITROGEN, compound CCCCCCCCc1ccc(O)cc1 [4-OCTYLPHENOL] : ____
16.83

Reported BLOOD UREA NITROGEN, compound CC(C)Cc1ccc(C(C)C(=O)O)cc1 (centres undefined) [IBUPROFEN] : ____
13.67

Reported BLOOD UREA NITROGEN, compound C[C@H]1O[C@@H](O[C@H]2[C@@H](O)C[C@H](O[C@H]3[C@@H](O)C[C@H](O[C@H]4CC[C@@]5(C)[C@H](CC[C@@H]6[C@@H]5CC[C@]5(C)[C@@H](C7=CC(=O)OC7)CC[C@]65O)C4)O[C@@H]3C)O[C@@H]2C)C[C@H](O)[C@@H]1O [DIGITOXIN] : ____
14

Reported BLOOD UREA NITROGEN, compound Cc1cccc(Nc2ccncc2S(=O)(=O)NC(=O)NC(C)C)c1 [TORSEMIDE] : ____
13.67

Reported BLOOD UREA NITROGEN, compound COCCOC(=O)C1=C(C)NC(C)=C(C(=O)OC(C)C)C1c1cccc([N+](=O)[O-])c1 (centres undefined) [NIMODIPINE] : ____
14.17
